Data provenance is patent US7098218B2.

Please respond with reported inhibition at 10 µM for every item in the list.
- Test system: E2DH Type I (HSD Type I) in T47D breast cancer cells (Homo sapiens, UniProt P14061)
- Construct: T47D breast cancer cells in which E2HSD Type I activity is abundant; endogenous in cells; host or cells: T47D breast cancer cells
- Method description: Conversion of oestrone to oestradiol in intact T47D cell monolayers (Protocol 7)
- Assay type: cell-based
- Condition details: T47D, measured at 10 μM, read-out: % Inhibition E1 → E2 ± SD (HSD Type I)
State the answer as a number, implicitly in %.

Enquiry: What value of inhibition at 10 µM has been reported for the following compound? CC(C)(C)c1ccc(CN2C(=O)CC3C4CCc5cc(O)ccc5C4CC[C@]3(C)C2=O)cc1 (stereo partly drawn) [compound 279]
Return: 16

Enquiry: Which inhibition at 10 µM is listed for CCCCCN1C(=O)CC2C3CCc4cc(O)ccc4C3CC[C@]2(C)C1=O (stereo partly drawn) [compound 190] ?
Return: 24.1

Enquiry: Tell me the measured inhibition at 10 µM of COc1cc2c(cc1OS(N)(=O)=O)CCC1C2CC[C@]2(C)C(=O)NC(=O)CC12 (stereo partly drawn) [compound 326] , please.
Return: 7.5

Enquiry: Please look up its inhibition at 10 µM: C[C@]12CCC3c4ccc(O)cc4CCC3C1CC(=O)NC2=O (stereo partly drawn) [compound 187]
Return: 25.3

Enquiry: Value lookup for inhibition at 10 µM; key = CCCCCCN1C(=O)CC2C3CCc4cc(O)ccc4C3CC[C@]2(C)C1=O (stereo partly drawn) [compound 276]
Return: 22.7

Enquiry: Fill in: inhibition at 10 µM of C[C@]12CCC3c4ccc(O)cc4CCC3C1CC(=O)N(Cc1ccccc1)C2=O (stereo partly drawn) [compound 233] is ___
Return: 58.8

Enquiry: Quick one: inhibition at 10 µM for C[C@]12CCC3c4ccc(O)cc4CCC3C1CC(=O)N(CC1CC1)C2=O (stereo partly drawn) [compound 278] ?
Return: 24.2

Enquiry: Which inhibition at 10 µM is listed for CCCCN1C(=O)CC2C3CCc4cc(O)ccc4C3CC[C@]2(C)C1=O (stereo partly drawn) [compound 277] ?
Return: 18.6

Enquiry: // lookup inhibition at 10 µM for C=CCN1C(=O)CC2C3CCc4cc(O)ccc4C3CC[C@]2(C)C1=O (stereo partly drawn) [compound 274]
Return: 36.8

---

Measurement kind: pIC50
In simple prose, pIC50 is minus the logarithm base ten of a concentration in moles per litre.

Enquiry: Lab request: please report pIC50 under test system human placental steroid sulphatase (Homo sapiens, UniProt P08842) for CCCN1C(=O)CC2C3CCc4cc(OS(N)(=O)=O)ccc4C3CC[C@]2(C)C1=O (stereo partly shown)
Return: 9.00

Enquiry: Record C[C@]12CC[C@@H]3c4ccc(OS(N)(=O)=O)cc4CC[C@H]3[C@@H]1CCC2=O [EMATE, estrone-3-O-sulfamate] : what is its pIC50 with human placental steroid sulphatase (Homo sapiens, UniProt P08842)?
Return: 8.10

Enquiry: Form entry - test system: human placental steroid sulphatase (Homo sapiens, UniProt P08842); read-out: pIC50; compound: C[C@]12CCC3c4ccc(OS(N)(=O)=O)cc4CCC3C1CC(=O)NC2=O (stereo partly shown)
Sequence (P08842 22-583): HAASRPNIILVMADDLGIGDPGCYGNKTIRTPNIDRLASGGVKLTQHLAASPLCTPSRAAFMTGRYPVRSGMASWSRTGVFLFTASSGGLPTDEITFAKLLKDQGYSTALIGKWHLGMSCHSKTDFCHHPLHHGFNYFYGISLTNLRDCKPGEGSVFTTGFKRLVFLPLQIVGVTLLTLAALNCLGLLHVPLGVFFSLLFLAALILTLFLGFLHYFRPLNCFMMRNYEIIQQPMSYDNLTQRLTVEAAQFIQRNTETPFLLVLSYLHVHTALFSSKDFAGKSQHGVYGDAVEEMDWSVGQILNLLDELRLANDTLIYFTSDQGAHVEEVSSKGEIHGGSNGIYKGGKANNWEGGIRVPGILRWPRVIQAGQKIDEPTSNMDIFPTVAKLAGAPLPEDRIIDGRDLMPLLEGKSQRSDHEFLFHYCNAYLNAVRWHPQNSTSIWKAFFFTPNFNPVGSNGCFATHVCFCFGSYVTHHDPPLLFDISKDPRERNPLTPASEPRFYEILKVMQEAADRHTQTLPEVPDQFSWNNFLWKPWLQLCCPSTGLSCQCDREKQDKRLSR
Return: 7.70

Enquiry: Query the reported pIC50 for human placental steroid sulphatase (Homo sapiens, UniProt P08842); item: CN1C(=O)CC2C3CCc4cc(OS(N)(=O)=O)ccc4C3CC[C@]2(C)C1=O (stereo partly shown)
Return: 7.92

---

Please respond with reported inhibition at 10 µM for every item in the list.
- Test system: E2DH Type II (HSD Type II) in MDA-MB231 breast cancer cells (Homo sapiens)
- Construct: endogenous in cells; host or cells: MDA-MB-231 breast cancer cells
- Method description: Conversion of oestradiol to oestrone in intact MDA-MB231 cell monolayers (Protocol 7)
- Format: cell-based
- Condition details: MDA-MB-231, measured at 10 μM, read-out: % Inhibition E2 → E1 ± SD (HSD Type II)
- Description: The ability of compounds to inhibit steroid dehydrogenase activity can be assessed using either T47D breast cancer cells in which E2HSD Type I activity is abundant or MDA-MB-231 cells for Type II inhibitor studies. […] Conversion of oestrone to oestradiol (E1→E2, E2DH Type I) and oestradiol to oestrone (E2→E1, E2DH Type II) was measured in intact cell monolayers of T47D and MDA-MB231 breast cancer cells respectively. […]
Please state the figure in %; there is no need to write the unit.

Enquiry: Which value of inhibition at 10 µM has been reported for CC(C)(C)c1ccc(CN2C(=O)CC3C4CCc5cc(OS(N)(=O)=O)ccc5C4CC[C@]3(C)C2=O)cc1 (some centres unmarked) [compound 285] in the records?
Return: 3.56

Enquiry: Any idea what inhibition at 10 µM was measured for CCN1C(=O)CC2C3CCc4cc(OS(N)(=O)=O)ccc4C3CC[C@]2(C)C1=O (some centres unmarked) [compound 281] ?
Return: 20.4

Enquiry: Item CCCN1C(=O)CC2C3CCc4cc(OS(N)(=O)=O)ccc4C3CC[C@]2(C)C1=O (some centres unmarked) [compound 213] has what recorded inhibition at 10 µM?
Return: 14.3

Enquiry: May I ask what inhibition at 10 µM has been recorded for CCCCN1C(=O)CC2C3CCc4cc(O)ccc4C3CC[C@]2(C)C1=O (some centres unmarked) [compound 277] ?
Return: 13.2

Enquiry: Fill in the blank: the reported inhibition at 10 µM of C[C@]12CCC3c4ccc(O)cc4CCC3C1CC(=O)N(Cc1ccccc1)C2=O (some centres unmarked) [compound 233] is ____.
Return: 35.8

Enquiry: Name the recorded inhibition at 10 µM for CC(C)(C)c1ccc(CN2C(=O)CC3C4CCc5cc(O)ccc5C4CC[C@]3(C)C2=O)cc1 (some centres unmarked) [compound 279] .
Return: 3.87

Enquiry: Entry C[C@]12CCC3c4ccc(OS(N)(=O)=O)cc4CCC3C1CC(=O)N(CCCCBr)C2=O (some centres unmarked) [compound 286] : reported inhibition at 10 µM = ?
Return: -2.98

Enquiry: Any idea what its inhibition at 10 µM is? The molecule is C=CCN1C(=O)CC2C3CCc4cc(O)ccc4C3CC[C@]2(C)C1=O (some centres unmarked) [compound 274]
Return: -4.04

---

So I've got a bunch of compounds here, and I need their inhibition at 10 µM values.
- Test system: E2DH Type I (HSD Type I) in T47D breast cancer cells (Homo sapiens, UniProt P14061)
- Construct: T47D breast cancer cells in which E2HSD Type I activity is abundant; endogenous in cells; host or cells: T47D breast cancer cells
- Sequence (P14061 2-328 limits assumed): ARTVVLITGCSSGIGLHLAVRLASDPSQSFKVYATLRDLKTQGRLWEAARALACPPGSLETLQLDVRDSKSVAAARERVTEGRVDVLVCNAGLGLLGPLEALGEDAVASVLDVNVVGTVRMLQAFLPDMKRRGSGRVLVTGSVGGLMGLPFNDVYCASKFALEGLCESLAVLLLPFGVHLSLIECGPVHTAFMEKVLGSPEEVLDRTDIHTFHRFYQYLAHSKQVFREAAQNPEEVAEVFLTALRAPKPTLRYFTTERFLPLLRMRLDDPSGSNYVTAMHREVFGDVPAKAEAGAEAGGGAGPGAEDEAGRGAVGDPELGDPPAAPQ
- Method description: Conversion of oestrone to oestradiol in intact T47D cell monolayers (Protocol 7)
- Type: cell-based
- Condition details: T47D, measured at 10 μM, read-out: % Inhibition E1 → E2 ± SD (HSD Type I)

Enquiry: Fill in the recorded inhibition at 10 µM for this compound, with E2DH Type I (HSD Type I) in T47D breast cancer cells (Homo sapiens, UniProt P14061) as test system: C[C@]12CCC3c4ccc(OS(N)(=O)=O)cc4CCC3C1CC(=O)N(Cc1cccnc1)C2=O (stereo partly drawn)
Return: -2%

Enquiry: Record C[C@]12CCC3c4ccc(OS(N)(=O)=O)cc4CCC3C1CC(=O)N(CCCCBr)C2=O (stereo partly drawn) : what is its inhibition at 10 µM with E2DH Type I (HSD Type I) in T47D breast cancer cells (Homo sapiens, UniProt P14061)?
Return: 26%

Enquiry: Enter reported inhibition at 10 µM observed with E2DH Type I (HSD Type I) in T47D breast cancer cells (Homo sapiens, UniProt P14061) for CCN1C(=O)CC2C3CCc4cc(O)ccc4C3CC[C@]2(C)C1=O (stereo partly drawn)
Return: 42.5%

---

Measurement kind: melting point

Enquiry: Quick check: melting point of C[C@]12CCC3c4ccc(O)cc4CCC3C1CC(=O)N(CCCCBr)C2=O (some centres unmarked) ?
Return: 165 to 167 °C

Enquiry: Using the record for C=CCN1C(=O)CC2C3CCc4cc(O)ccc4C3CC[C@]2(C)C1=O (some centres unmarked) , report its melting point.
Return: 147 to 149 °C

Enquiry: Give its melting point value. Item: C[C@]12CCC3c4ccc(O)cc4CCC3C1CC(=O)N(Cc1ccccc1)C2=O (some centres unmarked)
Return: 298 to 301 °C

Enquiry: Entry under review: CC(C)(C)c1ccc(CN2C(=O)CC3C4CCc5cc(O)ccc5C4CC[C@]3(C)C2=O)cc1 (some centres unmarked) . Reported melting point?
Return: 128 to 130 °C

Enquiry: Find the recorded melting point belonging to CCCN1C(=O)CC2C3CCc4cc(O)ccc4C3CC[C@]2(C)C1=O (some centres unmarked) and report it.
Return: 183 to 186 °C

Enquiry: Given the entry CCN1C(=O)CC2C3CCc4cc(O)ccc4C3CC[C@]2(C)C1=O (some centres unmarked) , report its measured melting point.
Return: 306 to 308 °C

Enquiry: Sample CN1C(=O)CC2C3CCc4cc(O)ccc4C3CC[C@]2(C)C1=O (some centres unmarked) — what was its melting point?
Return: 328 to 330 °C

Enquiry: So what does the record say about melting point for C[C@]12CCC3c4ccc(O)cc4CCC3C1CC(=O)NC2=O (some centres unmarked) ?
Return: 297 to 300 °C

Enquiry: # lookup: melting point of C[C@]12CCC3c4ccc(O)cc4CCC3C1CC(=O)N(CC1CC1)C2=O (some centres unmarked)
Return: 238 to 240 °C

Enquiry: Fill in the blank: the reported melting point of CCCCCCN1C(=O)CC2C3CCc4cc(O)ccc4C3CC[C@]2(C)C1=O (some centres unmarked) is ____.
Return: 157 to 159 °C

Enquiry: Given the entry CCCCCN1C(=O)CC2C3CCc4cc(O)ccc4C3CC[C@]2(C)C1=O (some centres unmarked) , report its measured melting point.
Return: 181 to 184 °C
